// values below are reported melting point

record-smiles	measure-unit	melting point
CC(C)(CO)NS(=O)(=O)c1cccc(NC(=O)c2cnn3c(C(F)(F)F)cc(-c4ccc(C(F)(F)F)c(Cl)c4)nc23)c1	°C	251
CCc1ccc(C#Cc2ccc(Br)cc2)cc1	°C	117

* * *

compound	melting point
CC(C)(C)[Si](C)(C)OC1CCCc2cnc3cc(OCc4ccccc4)ccc3c21 (stereo not given)	123 to 125 °C
CC(=O)c1ccc2c(NCc3ccc(NC(=O)c4ccc(F)cc4)cc3)nc(N(C)C)nc2c1	195 °C
COC(=O)c1ccc(OCCC2CC(=O)N(c3ccc(Cl)cc3)C2)cc1 (stereo not given)	126 to 128 °C
O=C(O)C[C@H](NC(=O)CNC(=O)c1csc(NC(=O)NCc2ccccn2)n1)C(=O)NCc1ccccn1	164 °C
CS(=O)(=O)NC(=O)CCc1ccc(OC2CCc3cc(Cl)ccc32)cc1 (stereo not given)	140 to 141 °C
CCOc1c(N2CCC(Oc3ccc(CC(=O)N4CCN(c5ccccc5C)CC4C(N)=O)c(OC)c3)CC2)c(=O)c1=O (stereo not given)	155 to 157 °C
COc1ccc(CNc2nc(NCc3ccc(C(O)C(F)(F)F)cc3)nc3ncccc23)cc1OC (stereo not given)	121 to 122 °C
COc1ccc(-c2cnn(-c3cccc(C)n3)c(=O)c2)cc1	167 to 168 °C
CC1(C)c2cc(I)ccc2-c2ccc(I)cc21	195 °C
CCOC(C)COC1CCNCC1 (stereo not given)	68 to 70 °C
CCNC(=O)Cn1c(=O)c(=O)[nH]c2cc([N+](=O)[O-])c(-n3cccc3)cc21	> 300 °C
CC(C)C(NS(=O)(=O)c1ccccc1)C(=O)NOCc1ccccc1 (stereo not given)	163 to 165 °C
N#Cc1ccccc1CCc1n[nH]c2c1c(=O)n(-c1ccccc1)c1ncccc21	316 °C
O=c1[nH]ncc2[nH]c(-c3ccc(OC(F)F)c(OC4CCC4)c3)c(-c3ccccc3)c12	280 to 284 °C
Cc1c(-c2ccc(Cl)cc2F)sc2nc(N)[nH]c(=O)c12	320 to 340 °C
COc1ccc2cccc(CCNC(C)=O)c2c1	108 °C
CC(C)(C(=O)c1ccc(SCCCCCCS)cc1)N1CCOCC1	61 to 64 °C
CCOC(=O)Nc1cccc(-c2ccc3nnc(C)n3n2)c1	232 to 235 °C
CCc1c2c(nn1CC)c(N)nc1cc(OC)ccc12	210 to 211 °C
CCCc1c(OCCCOc2ccc(C(=O)O)cc2Br)ccc(C(C)=O)c1O	180 to 182 °C
COC(=O)CS(=O)(=O)Cc1cccc(-c2nc(=O)c3ccccc3s2)n1	205 to 207 °C
COc1cc2c(c(Br)c1OC(C)=O)Sc1cc(C)ccc1N2	193 to 194 °C
CN(C)CCCNC(=O)c1ccccc1NS(=O)(=O)c1cccc(C(F)(F)F)c1	116 to 123 °C
CCCC(=O)c1ccc(C(=O)O)cn1	128 to 130 °C
CCCN(C)c1ncc2cc(-c3ccc(C(=O)N4CCN(C)CC4)cc3)[nH]c2n1	222 to 224 °C
CC(C)(C)OC(=O)c1nc(-c2ccccc2)[nH]c1-c1cnccn1	196 to 197 °C
CC(C)(C)c1ccc2c3c(c(=O)oc2c1)CNCC3	181 to 186 °C
COc1ccc2sc(=O)[nH]c2c1	168 to 170 °C
OCCCCc1cn(C(c2ccccc2)(c2ccccc2)c2ccccc2)cn1	144 to 146 °C
CCOC(=O)CC(Cc1ccc(OCCc2nc(-c3ccccc3)oc2C)cc1)C(N)=O (stereo not given)	142 °C
CC(C)N(C(=S)Nc1ccccc1[N+](=O)[O-])C1CCN(CCc2ccccc2)CC1	101 °C
O=C(O)COc1c2c3c(ccnc3c3ccccc13)CCC2	228 °C
CCOC(=O)C(=O)Nc1c([N+](=O)[O-])sc2ccc(Cl)cc12	126 to 128 °C
CC12CCC(=O)C=C1CCC1C2CCC2(C)C(C(=O)c3ccccc3)CCC12 (stereo not given)	171 to 173 °C
CCCCCCN(Cc1ccc(F)cc1)c1ccc(C(=O)OCC)cc1	41 to 42 °C
O=C(O)c1cc(OCc2ccccc2)c(C(=O)c2ccccc2)c([N+](=O)[O-])c1	205 to 207 °C
CC(=O)Nc1nc(CCc2ccc(CCC(=O)O)s2)cs1	164 to 165 °C
CS(=O)(=O)Nc1cncc(C(=NCCc2ccccc2Cl)NC#N)c1	205 °C
COc1ccc(-n2c(=O)oc(=O)c3ccccc32)cc1	215 to 216 °C
COCCOC(=O)C1=C(C)NN=C(C(=O)OC(C)C)C1c1cccc([N+](=O)[O-])c1 (stereo not given)	146 to 148 °C

* * *

compound	melting point
Cn1c(C(F)(F)F)cc(=O)n(-c2c(F)cc(Cl)c3nc(C(C)(C)C)oc23)c1=O	68 to 70 °C
N=C(N)c1ccc(C(=O)Nc2cc(C(=O)NCCC(=O)O)ccc2OCc2ccccc2)cc1	> 250 °C
Cc1ccc(NC(=O)Nc2cccc(C(F)(F)F)c2)cc1/C=C/n1cnc2c(NC3CC3)ncnc21	160 to 162 °C
COC(=O)/C=C/n1cnc2ccc(OC(C)C)cc2c1=O	156 to 158 °C
CCCN(CCCc1coc2c(OC)cccc12)C1COc2c(F)ccc(C(N)=O)c2C1 (stereo not given)	123 to 129 °C
O=C(Oc1ccccc1)c1ncn2c1[C@@H]1CCCN1C(=O)c1c(Cl)cccc1-2	211 to 212 °C
CCCC(C)(Sc1ccc(OCCn2c(CC)nc3ccccc3c2=O)cc1)C(=O)OCC (stereo not given)	148 to 150 °C
O=C(SCCCC(=O)N1CCC[C@H]1C(=O)O)c1ccccc1	159 to 161 °C
CCCc1cc2nn(Cc3ccc(NC(=O)c4ccccc4S(=O)(=O)O)cc3)c(=O)n2c(C)n1	283 to 286 °C
CC1CCN(c2ccc([N+](=O)[O-])cc2C(=O)c2ccc(Cl)c(Cl)c2)CC1	116 °C
CCOCc1nc2c(N)nc(C)c(C)c2n1CCCC(N)=O	199 to 200 °C
COc1ccc(C(=O)NCCc2ccc(-c3ccc(OC(C)(C)C(=O)O)cc3)cc2)cc1	180 to 183 °C
OCCn1c(NC2CCN(Cc3ccccc3)CC2)nc2cccnc21	126 °C
CCCC(Oc1ccc2c(-c3ccc(Cl)cc3)noc2c1)C(=O)O (stereo not given)	170 °C
Cn1c2cc(Cl)ccc2c2c(CO)nn(-c3ccccc3)c(=O)c21	219 to 220 °C
Nc1nc2ccccc2c2c1ncn2CC1(O)CCCCC1	> 250 °C
CN1CCC(=O)N(c2ccc(Cl)cc2Cl)C1=O	122 to 125 °C
C=C(c1ccc(-c2nnc(N)s2)cc1)C(O)(Cn1cncn1)c1ccc(F)cc1F (stereo not given)	118 to 121 °C
O=C(N1CCc2ccc(S(=O)(=O)F)cc2C1)C(F)(F)F	99 to 103 °C
COc1ccnc(CCc2nc3cc(-c4ccc(S(=O)(=O)N(C)c5ccc(Cl)cc5)cc4)cnc3[nH]2)c1	191 to 192 °C
CC(Oc1ccc(COc2ccc(Cl)cc2Cl)cc1)C(=O)O (stereo not given)	122 to 123 °C
O=C(Nc1ccc2cc(CN3CCCCC3)ccc2c1)N1CCC(c2ccc(F)cc2)CC1	209 to 211 °C
CCOC(=O)c1c(O)c2cccnc2n(C)c1=O	158 to 160 °C
Cc1ccc(NC2=C(Cl)C(=O)c3ccccc3C2=O)nc1	260 to 261 °C
CN(C)CCNCc1ccc(-c2cc3ncnc(Nc4ccc5[nH]ccc5c4)c3s2)cc1	170 to 183 °C
CCCCn1ncc2c1nc(N)n1nc(-c3ccco3)nc21	157 to 158 °C
O=C(c1ccccc1)c1ccc2nc(-c3ccc(Br)o3)[nH]c2c1	167 to 172 °C
CCCc1[nH]cnc1C=O	120 to 124 °C
Cc1cn(C2CCCCC2)c(=O)[nH]c1=S	177 to 178 °C
O=C(CN1CCC(Cc2ccc(F)cc2)CC1)Nc1cccc(NCc2ccccc2)c1	98 to 100 °C
CSc1cc(C)c(C(=O)N=C(N)N)cc1S(C)(=O)=O	220 to 222 °C
Cc1c(Cl)ccnc1C(=O)NCCNC(=O)OC(C)(C)C	134 to 135 °C
O=S(=O)(c1ccccc1)c1c(-c2ccc(Cl)cc2)[nH]c(C(F)(F)F)c1Cl	158 to 161 °C
CC(C)(C)c1cc(C(=O)Nc2ccc(CC(=O)O)cc2)cc(C(C)(C)C)c1O	253 to 254 °C
O=C(c1oc2ccc(N3CCN(Cc4ccccc4)CC3)cc2c1Br)N(Cc1ccccc1)Cc1ccccc1	196 to 198 °C
COc1cc(Oc2cccc(C(F)(F)F)c2)nc(C(=O)Nc2ccccc2)c1	131 to 133 °C
CC(C)C(=O)NCCCCn1c(CO)nc2c(N)nc3ccccc3c21	222 to 224 °C
CC(=O)c1ccc2c(c1O)CC(O)CO2 (stereo not given)	130 to 132 °C
OCCN1CCC(OC(c2ccccc2)c2ccccc2)CC1	83 to 85 °C
Cc1sc2c(I)c3ccccc3c(-c3ccc(OS(C)(=O)=O)cc3)c2c1C	212 to 213 °C
